# Assayed System: T1, HLA-A*01:01 in complex with the BTK peptide … conjugated with Ibrutinib (human, ibrutinib covalently bound to Cys)
# T1 construct: also called HLA-A*01:01_BTK-Ibrutinib
# Experiment Summary: phage display selection; MBBA

Binder | binding result
IBA1-7 (antibody, V domains shown, phage-display clone) VH: EVQLVESGGGLVQPGGSLRLSCAASGFTLSSSSIHWVRQAPGKGLEWVASISSYYGSTSYADSVKGRFTISADTSKNTAYLQMNSLRAEDTAVYYCARMHYSWQEYYSYDWGMDYWGQGTLVTVSS VL: DIQMTQSPSSLSASVGDRVTITCRASQSVSSAVAWYQQKPGKAPKLLIYSASSLYSGVPSRFSGSRSGTDFTLTISSLQPEDFATYYCQQSYWWKSLVTFGQGTKVEIKR | binds
IBA1-13 (antibody, V domains shown, phage-display clone) VH: EVQLVESGGGLVQPGGSLRLSCAASGFTLSSSSIHWVRQAPGKGLEWVASIYSSYGYTYYADSVKGRFTISADTSKNTAYLQMNSLRAEDTAVYYCARYYYYWYGGMDYWGQGTLVTVSS VL: DIQMTQSPSSLSASVGDRVTITCRASQSVSSAVAWYQQKPGKAPKLLIYSASSLYSGVPSRFSGSRSGTDFTLTISSLQPEDFATYYCQQGHDMNPVTFGQGTKVEIKR | binds
IBA1-19 (antibody, V domains shown, phage-display clone) VH: EVQLVESGGGLVQPGGSLRLSCAASGFTFSYSSIHWVRQAPGKGLEWVASIYPSSGYTSYADSVKGRFTISADTSKNTAYLQMNSLRAEDTAVYYCARGWWYWMAWDYAMDYWGQGTLVTVSS VL: DIQMTQSPSSLSASVGDRVTITCRASQSVSSAVAWYQQKPGKAPKLLIYSASSLYSGVPSRFSGSRSGTDFTLTISSLQPEDFATYYCQQSWMSDSLITFGQGTKVEIKR | binds
